Where do these numbers come from? They come from paper PMC6009873.

tgt: PDGFR-β (Homo sapiens, UniProt P09619)
Sequence (P09619 33-1106): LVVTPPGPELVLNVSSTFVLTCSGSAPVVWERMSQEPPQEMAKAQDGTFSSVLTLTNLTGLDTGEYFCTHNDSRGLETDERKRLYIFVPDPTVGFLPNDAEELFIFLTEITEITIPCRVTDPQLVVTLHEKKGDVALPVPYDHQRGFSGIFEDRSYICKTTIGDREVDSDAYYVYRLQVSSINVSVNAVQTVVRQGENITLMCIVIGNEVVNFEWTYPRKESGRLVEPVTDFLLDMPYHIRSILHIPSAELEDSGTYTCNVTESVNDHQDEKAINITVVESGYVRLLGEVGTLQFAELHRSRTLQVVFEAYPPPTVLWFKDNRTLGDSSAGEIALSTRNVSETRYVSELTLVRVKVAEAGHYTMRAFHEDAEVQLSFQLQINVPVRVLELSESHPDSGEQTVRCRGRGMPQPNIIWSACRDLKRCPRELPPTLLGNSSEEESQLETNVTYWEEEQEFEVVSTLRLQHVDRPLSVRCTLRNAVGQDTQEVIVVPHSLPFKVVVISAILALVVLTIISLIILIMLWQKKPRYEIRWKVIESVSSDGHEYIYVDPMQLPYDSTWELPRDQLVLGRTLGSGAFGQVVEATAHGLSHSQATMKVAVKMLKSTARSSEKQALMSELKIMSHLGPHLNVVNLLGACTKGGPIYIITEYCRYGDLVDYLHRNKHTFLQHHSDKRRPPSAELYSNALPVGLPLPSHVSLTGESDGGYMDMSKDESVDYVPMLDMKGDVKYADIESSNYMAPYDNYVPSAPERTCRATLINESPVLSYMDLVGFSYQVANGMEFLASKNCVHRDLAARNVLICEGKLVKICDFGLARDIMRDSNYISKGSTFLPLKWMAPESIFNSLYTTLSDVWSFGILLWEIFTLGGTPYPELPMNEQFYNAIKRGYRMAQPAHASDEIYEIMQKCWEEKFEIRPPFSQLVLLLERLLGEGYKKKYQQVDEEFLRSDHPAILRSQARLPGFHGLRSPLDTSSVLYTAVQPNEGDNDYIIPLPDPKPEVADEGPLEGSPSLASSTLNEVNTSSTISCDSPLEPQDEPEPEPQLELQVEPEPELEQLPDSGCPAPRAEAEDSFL
quantity: Ki (µM)

{"compound": "C#Cc1cccc(Nc2nc(N)nc3[nH]c4ccc(O)cc4c23)c1 [Compound 5c]", "quantity": "Ki", "unit.string": "µM", "measured.number": 3.53}
{"compound": "Nc1nc(Nc2ccc(OCc3cccc(F)c3)cc2)c2c(n1)[nH]c1ccc(O)cc12 [Compound 5k]", "quantity": "Ki", "unit.string": "µM", "measured.number": 0.081}
{"compound": "Nc1nc(Nc2ccc(Br)cc2)c2c(n1)[nH]c1ccc(O)cc12 [Compound 5h]", "quantity": "Ki", "unit.string": "µM", "measured.number": 3.23}
{"compound": "CC(C)Oc1cccc(Nc2nc(N)nc3[nH]c4ccc(O)cc4c23)c1 [Compound 5b]", "quantity": "Ki", "unit.string": "µM", "measured.number": 2.75}

* * *

Quick record: Ki, EGFR (Homo sapiens, UniProt P00533).

{"smiles.str": "COc1cccc(COc2ccc(Nc3nc(N)nc4[nH]c5ccc(O)cc5c34)cc2)c1", "Ki": "132 nM"}
{"smiles.str": "CCOc1ccc(Nc2nc(N)nc3[nH]c4ccc(O)cc4c23)cc1", "Ki": "935 nM"}
{"smiles.str": "Nc1nc(Nc2ccc(Br)cc2)c2c(n1)[nH]c1ccc(O)cc12", "Ki": "475 nM"}
{"smiles.str": "C#Cc1cccc(Nc2nc(N)nc3[nH]c4ccc(O)cc4c23)c1", "Ki": "149 nM"}
{"smiles.str": "CCOc1cccc(Nc2nc(N)nc3[nH]c4ccc(O)cc4c23)c1", "Ki": "181 nM"}
{"smiles.str": "COc1ccc(COc2ccc(Nc3nc(N)nc4[nH]c5ccc(O)cc5c34)cc2)cc1", "Ki": "413 nM"}
{"smiles.str": "Nc1nc(Nc2ccc(OCc3cccc(F)c3)cc2)c2c(n1)[nH]c1ccc(O)cc12", "Ki": "170 nM"}
{"smiles.str": "C#Cc1ccc(Nc2nc(N)nc3[nH]c4ccc(O)cc4c23)cc1", "Ki": "421 nM"}
{"smiles.str": "COc1ccc(COc2ccc(Nc3nc(N)nc4[nH]c5ccc(O)cc5c34)cc2Cl)cc1", "Ki": "103 nM"}
